- ASSAY TARGET: truncated form of PTP1B (corresponding to the first 321 amino acids) (Homo sapiens, UniProt P18031)
- Construct: a truncated form of PTP1B (corresponding to the first 321 amino acids); made in house; host or cells: E. coli
- Sequence (P18031 1-321): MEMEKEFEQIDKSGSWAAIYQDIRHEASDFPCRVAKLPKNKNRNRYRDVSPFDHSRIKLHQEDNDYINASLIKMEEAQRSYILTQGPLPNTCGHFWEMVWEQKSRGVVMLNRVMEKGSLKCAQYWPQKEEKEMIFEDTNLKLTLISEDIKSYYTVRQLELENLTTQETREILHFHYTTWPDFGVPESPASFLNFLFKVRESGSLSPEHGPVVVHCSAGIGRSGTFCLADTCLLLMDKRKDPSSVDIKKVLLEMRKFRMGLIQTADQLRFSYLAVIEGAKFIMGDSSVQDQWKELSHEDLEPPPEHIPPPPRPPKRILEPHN
- METHOD SUMMARY: Inhibition of PTP1B, p-nitrophenyl phosphate substrate
- Type: biochemical
- EXPERIMENTAL PARAMETERS: substrate p-nitrophenyl phosphate 0.16 to 10 mM; 100 mM sodium acetate pH 5.5; 25° C. for 60 minutes; absorbance at 405 nm
Structures can show the parent of a compound that is named as a salt.
READOUT KIND: pKi
Give bare numbers, as −log10 of the molar value.

Any idea what its pKi is? The compound is O=C(O)C(=O)Nc1sc2c(c1C(=O)O)CCN(C(=O)c1ccccc1)C2 [Example 1, Mono Sodium Salt]
4.29

Okay, now this compound:
Any idea what its pKi is? The compound is O=C(O)C(=O)Nc1sc2c(c1C(=O)O)CCN(CCc1ccccc1)C2
5.52
